Please go through the items and note down their log10 MIC.
test system: Mycobacterium tuberculosis H37Rv; assay: Inhibition of Mycobacterium tuberculosis H37Rv ATCC 27294 QcrB assessed as reduction in bacterial growth by resazurin reduction microplate assay
Scale: log10; quantity: MIC; unit before log: µM

Report measured log10 MIC; entry is COc1ccc2nc(C)cc(OCc3ccc(Br)cc3)c2c1
1.14

Identify measured log10 MIC associated with COc1ccc2nc(C)cc(OCc3ccc4c(c3)OCO4)c2c1
1.49

Note down log10 MIC recorded for COc1ccc(C(=O)COc2cc(C)nc3ccc(OC)cc23)cc1
0.87

Note log10 MIC for the compound shown: COc1ccc2nc(C)cc(OCc3ccccc3)c2c1
0.75

# return recorded log10 MIC for entry COc1ccc2nc(C)cc(OCC(=O)c3ccccc3)c2c1
0.11

Read off the recorded log10 MIC for COc1ccc2nc(C)cc(OCc3ccc(Br)c(Cl)c3)c2c1
0.20
